Entries and their growth
- Tested on: OVCAR-3 ovarian
- assay-summary: NCI-60 one-dose screen, 48 h (100 = growth as untreated, 0 = no growth, -100 = all killed)
- study-conditions: 10 µM unless noted
Compounds without any hit were thinned out: in the full panel of roughly 83,000, 20% have a hit.

compound	assayed-system	output-unit	growth
CC(C)(C)n1cc(-c2ccnc(NCCCNS(=O)(=O)c3ccc(F)cc3)c2)c(-c2cccc(F)c2)n1	OVCAR-3 ovarian	%	74.8
Oc1ccc(CN2CCC(N3CCCCC3)CC2)c2cccnc12	OVCAR-3 ovarian	%	28.8
N#Cc1cccc(F)c1	OVCAR-3 ovarian	%	126
CCCCNC(=O)Oc1ccc(/C(=C(/CC)Cc2ccccc2)c2ccc(OCCN3CCCCCC3)cc2)cc1	OVCAR-3 ovarian	%	72.2
Cc1ccc(Sc2oc(-c3ccc(C)cc3)nc2[P+](c2ccccc2)(c2ccccc2)c2ccccc2)cc1	OVCAR-3 ovarian	%	-3.45
CN(C)CCCC1(c2ccc(F)cc2)OCc2cc(-c3cncc4ccccc34)ccc21 (centres undefined)	OVCAR-3 ovarian	%	47
Fc1ccc(Nc2nc3nonc3nc2Nc2ccc(I)cc2)cc1	OVCAR-3 ovarian	%	9.78
COC(C(=O)[C@@H](O)[C@@H](C)O)[C@@H]1Cc2cc3cc(O[C@H]4C[C@@H](O[C@H]5C[C@@H](O)[C@H](O)C(C)O5)[C@H](O)C(C)O4)c(C)c(O)c3c(O)c2C(=O)[C@H]1O[C@H]1C[C@@H](O[C@H]2C[C@@H](O[C@H]3C[C@@H](O)[C@H](OC)C(C)O3)[C@@H](O)C(C)O2)[C@H](O)C(C)O1 (some centres undefined)	OVCAR-3 ovarian	%	5.62
Nc1c(C(=O)Nc2ccccc2Cl)sc2nc3c(cc12)C(O)CCC3 (centres undefined)	OVCAR-3 ovarian	%	15.5
O=C(CI)NC1Oc2ccccc2-c2oc(=O)c(-c3ccccc3)cc21 (centres undefined)	OVCAR-3 ovarian	%	-95.1
CC1=NN(c2nc(SCC(=O)Nc3nc4ccc(C)cc4s3)nc(-c3ccccc3)c2C#N)C(=O)C1	OVCAR-3 ovarian	%	108
N#Cc1c(NC(=O)c2ccccc2)sc2c1CCC(=O)C2	OVCAR-3 ovarian	%	-4.44
CCOC(=O)CSc1ncnc2c1c(-c1ccccc1)c(-c1ccccc1)n2-c1ccc(C)cc1	OVCAR-3 ovarian	%	66.4
O=C(c1ccc(-c2ccccc2)cc1)c1ccc([N+](=O)[O-])cc1	OVCAR-3 ovarian	%	104
Cn1cc(-c2csc(-c3c[nH]c4ccc(Br)cc34)n2)c2cnccc21	OVCAR-3 ovarian	%	-91.9
O=c1c2cc(-c3ccccc3)sc2nc2sc(-c3ccccc3)nn12	OVCAR-3 ovarian	%	108
CS(=O)(=O)C1=CN(CCO)C(=O)N2CCCN=C12	OVCAR-3 ovarian	%	105
COC(=O)CNC(=O)[C@H](Cc1ccccc1)NCc1ccncc1	OVCAR-3 ovarian	%	113
CS(=O)(=O)Nc1cc(-c2ccc3ncnc(Nc4ccc5c(cnn5Cc5ccccn5)c4)c3c2)cnc1Cl	OVCAR-3 ovarian	%	44.1
CN(C)Cc1ccc(NC(=O)c2cncc(C#Cc3cnc(N)c4ncccc34)c2)cc1F	OVCAR-3 ovarian	%	87.9
COc1ccc(/C(C)=C(/c2ccc(OCCCN(C)C)cc2)c2ccc(OC(=O)Cc3ccccc3)cc2)cc1	OVCAR-3 ovarian	%	81.2
Cn1ccnc1C(=O)C(=O)Nc1ccc(CC(=O)Nc2ccccc2)cc1	OVCAR-3 ovarian	%	108
O=S(=O)(Nc1ccccc1)c1ccc(C2CC3(Cl)C(Cl)=C(Cl)C2(Cl)C3(Cl)Cl)cc1 (centres undefined)	OVCAR-3 ovarian	%	26
CC(=O)N1N=C(c2ccc(Nc3nc(Nc4ccc(Cl)cc4)nc(Nc4ccc(Cl)cc4)n3)cc2)CC1c1ccco1 (centres undefined)	OVCAR-3 ovarian	%	104
O=C(COc1ccc(-c2nc3ccccc3[nH]2)cc1)N=Nc1c(O)[nH]c2ccc(Cl)cc12	OVCAR-3 ovarian	%	63.7
Cc1cccc(N2CCN(CC(O)COc3ccc(Cl)cc3)CC2)c1 (centres undefined)	OVCAR-3 ovarian	%	111
CCn1cc(C(=O)N/N=C/c2cccs2)c(=O)c2cc(F)c(N3CCNC(C)C3)c(F)c21 (centres undefined)	OVCAR-3 ovarian	%	68.7
C=C1CC[C@@H]2[C@](C)(COC(C)=O)[C@H](OC(C)=O)CC[C@@]2(C)[C@@H]1CC(Sc1ccccc1)C1=CCOC1=O (some centres undefined)	OVCAR-3 ovarian	%	-84.2
O=C1Nc2ccccc2/C1=C\c1nc(-c2ccccc2)n2ccccc12	OVCAR-3 ovarian	%	115
COc1cccc([C@H]2c3[nH]c4ccccc4c3C[C@H]3C(=O)N(CCCCCCC(=O)NO)CC(=O)N23)c1	OVCAR-3 ovarian	%	64.7
C/C(=N/O)c1ccc(F)cc1	OVCAR-3 ovarian	%	132
N=C(N)c1ccc(-c2ccc(-c3cc(Cl)cc(Cl)c3)o2)o1	OVCAR-3 ovarian	%	-87.9
COc1cccc(CNc2ncnc3c2ncn3C2OC(CO)C(O)C2O)c1O (centres undefined)	OVCAR-3 ovarian	%	-0.409
Brc1c2c(c(Br)c3ccccc13)CCCC2	OVCAR-3 ovarian	%	110
COc1cc(CNS(=O)(=O)c2ccc(C)cc2)ccc1OCc1cn(-c2ccc(Br)cc2)nn1	OVCAR-3 ovarian	%	112
C#Cc1ccc(NC(=O)c2ccc(/C=C/C(=O)c3nccn3C)cc2)cc1	OVCAR-3 ovarian	%	-86
CC(C)NC1CCC(Nc2ccnc3cc(Cl)ccc23)CC1 (centres undefined)	OVCAR-3 ovarian	%	109
COc1ccc(-c2nnc3n(C)c(=O)c4ccccc4n23)cc1N	OVCAR-3 ovarian	%	6.12
Cc1cc(=O)[nH]c2c(C#N)cnn12	OVCAR-3 ovarian	%	101
